System: 324938-238-R-J1-PDC complex spheroid growth, % test/control
Assay: Anticancer human tumor 324938-238-R-J1-PDC patient-derived bladder carcinoma cell line growth inhibition [AhR]
Conditions: second compound 0.316 µM; first compound 0.01 µM; stronger effect = lower value
propertyName: viability, T/C (%)
Give your result in % as a bare value.

Tested on 324938-238-R-J1-PDC complex spheroid growth, % test/control: CC1COCCN1c1cc(-c2ccnn2C)c2ccnc(-c3ccn[nH]3)c2n1 (stereo unspecified) + Cc1cncc(-c2nc(NCCc3c[nH]c4ccccc34)c3ncn(C(C)C)c3n2)c1 . Observed viability, T/C: 150

Tested on 324938-238-R-J1-PDC complex spheroid growth, % test/control: CC[C@@]1(O)C(=O)OCc2c1cc1n(c2=O)Cc2cc3c(CN(C)C)c(O)ccc3nc2-1 + CC(CO)NC(=O)c1cc(-c2ccc(Cl)cc2)nn(-c2cnn(C)c2)c1=O . Observed viability, T/C: 72.6

Tested on 324938-238-R-J1-PDC complex spheroid growth, % test/control: Cn1ncnc1C1c2n[nH]c(=O)c3cc(F)cc(c23)NC1c1ccc(F)cc1 (stereo unspecified) + Cc1cncc(-c2nc(NCCc3c[nH]c4ccccc34)c3ncn(C(C)C)c3n2)c1 . Observed viability, T/C: 81.6

Tested on 324938-238-R-J1-PDC complex spheroid growth, % test/control: Nc1ncn(C2CC(O)C(CO)O2)c(=O)n1 (stereo unspecified) + Cc1cncc(-c2nc(NCCc3c[nH]c4ccccc34)c3ncn(C(C)C)c3n2)c1 . Observed viability, T/C: 103

Tested on 324938-238-R-J1-PDC complex spheroid growth, % test/control: Nc1ncn(C2CC(O)C(CO)O2)c(=O)n1 (stereo unspecified) + CC(CO)NC(=O)c1cc(-c2ccc(Cl)cc2)nn(-c2cnn(C)c2)c1=O . Observed viability, T/C: 102

Tested on 324938-238-R-J1-PDC complex spheroid growth, % test/control: Cn1ncnc1C1c2n[nH]c(=O)c3cc(F)cc(c23)NC1c1ccc(F)cc1 (stereo unspecified) + CC(CO)NC(=O)c1cc(-c2ccc(Cl)cc2)nn(-c2cnn(C)c2)c1=O . Observed viability, T/C: 81.7

---

Test system: 324938-238-R-J1-PDC complex spheroid growth, % test/control
Assay: Anticancer human tumor 324938-238-R-J1-PDC cell line growth inhibition [AhR];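 also: spheroids exposed to agents for seven days before viability read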
Conditions: curve of first compound; second compound 1 µM
pIC50: −log10 of the molar value.
propertyName: pIC50

The compound listed as CC[C@@]1(O)C(=O)OCc2c1cc1n(c2=O)Cc2cc3c(CN(C)C)c(O)ccc3nc2-1 + Cc1cncc(-c2nc(NCCc3c[nH]c4ccccc34)c3ncn(C(C)C)c3n2)c1 shows pIC50 equal to < 7.00

The compound listed as Cn1ncnc1C1c2n[nH]c(=O)c3cc(F)cc(c23)NC1c1ccc(F)cc1 (stereo unspecified) + CC(CO)NC(=O)c1cc(-c2ccc(Cl)cc2)nn(-c2cnn(C)c2)c1=O shows pIC50 equal to < 7.00

The compound listed as Nc1ccn(C2OC(CO)C(O)C2(F)F)c(=O)n1 (stereo unspecified) + CC(CO)NC(=O)c1cc(-c2ccc(Cl)cc2)nn(-c2cnn(C)c2)c1=O shows pIC50 equal to > 7.50

The compound listed as CCN(c1cc(-c2ccc(CN3CCOCC3)cc2)cc(C(=O)NCc2c(C)cc(C)[nH]c2=O)c1C)C1CCOCC1 + CC(CO)NC(=O)c1cc(-c2ccc(Cl)cc2)nn(-c2cnn(C)c2)c1=O shows pIC50 equal to < 5.52

The compound listed as CCc1c2c(nc3ccc(O)cc13)-c1cc3c(c(=O)n1C2)COC(=O)[C@]3(O)CC + Cc1ccccc1N=Nc1ccc(NC(=O)c2ccnn2C)c(C)c1 shows pIC50 equal to 8.73

The compound listed as CC1COCCN1c1cc(-c2ccnn2C)c2ccnc(-c3ccn[nH]3)c2n1 (stereo unspecified) + Cc1cncc(-c2nc(NCCc3c[nH]c4ccccc34)c3ncn(C(C)C)c3n2)c1 shows pIC50 equal to < 6.00

---

Tested on: 324938-238-R-J1-PDC complex spheroid growth, % test/control
Assay: Anticancer human tumor 324938-238-R-J1-PDC cell line growth inhibition [AhR];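 also: spheroids exposed to agents for seven days before viability read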
Conditions: second compound 0.1 µM; first compound 3.16 µM; stronger effect = lower value
Values of viability, T/C strictly less than 60% map to class 1, and values of at least 60% map to class 0.

INPUT: Answer whether the compound COc1ccc([C@@H](O)c2cc(-c3ncnc4cc(N5CCOCC5)ccc34)c(F)cc2Cl)nn1 + Cc1cncc(-c2nc(NCCc3c[nH]c4ccccc34)c3ncn(C(C)C)c3n2)c1 has viability, T/C strictly less than 60%
OUTPUT: class 0

INPUT: Answer whether the compound COc1cc(Nc2ncc3c(n2)-c2ccc(Cl)cc2C(c2c(F)cccc2OC)=NC3)ccc1C(=O)O + CC(CO)NC(=O)c1cc(-c2ccc(Cl)cc2)nn(-c2cnn(C)c2)c1=O has viability, T/C strictly less than 60%
OUTPUT: class 1

INPUT: Answer whether the compound COc1cc(C2c3cc4c(cc3C(OC3OC5COC(C)OC5C(O)C3O)C3COC(=O)C23)OCO4)cc(OC)c1O (configuration not stated) + Cc1cncc(-c2nc(NCCc3c[nH]c4ccccc34)c3ncn(C(C)C)c3n2)c1 has viability, T/C strictly less than 60%
OUTPUT: class 0

INPUT: Answer whether the compound Nc1ccccc1NC(=O)c1ccc(CNC(=O)OCc2cccnc2)cc1 + Cc1cncc(-c2nc(NCCc3c[nH]c4ccccc34)c3ncn(C(C)C)c3n2)c1 has viability, T/C strictly less than 60%
OUTPUT: class 1

INPUT: Answer whether the compound O=C(c1cc(Cc2n[nH]c(=O)c3ccccc23)ccc1F)N1CCN(C(=O)C2CC2)CC1 + Cc1cncc(-c2nc(NCCc3c[nH]c4ccccc34)c3ncn(C(C)C)c3n2)c1 has viability, T/C strictly less than 60%
OUTPUT: class 0

INPUT: Answer whether the compound COc1ccc([C@@H](O)c2cc(-c3ncnc4cc(N5CCOCC5)ccc34)c(F)cc2Cl)nn1 + Cc1ccccc1N=Nc1ccc(NC(=O)c2ccnn2C)c(C)c1 has viability, T/C strictly less than 60%
OUTPUT: class 0

INPUT: Answer whether the compound Nc1ccn(C2OC(CO)C(O)C2(F)F)c(=O)n1 (configuration not stated) + CC(CO)NC(=O)c1cc(-c2ccc(Cl)cc2)nn(-c2cnn(C)c2)c1=O has viability, T/C strictly less than 60%
OUTPUT: class 1

INPUT: Answer whether the compound O=C(C=Cc1cccc(S(=O)(=O)Nc2ccccc2)c1)NO + CC(CO)NC(=O)c1cc(-c2ccc(Cl)cc2)nn(-c2cnn(C)c2)c1=O has viability, T/C strictly less than 60%
OUTPUT: class 1

INPUT: Answer whether the compound CC1COCCN1c1cc(C2(S(C)(=N)=O)CC2)nc(-c2ccnc3[nH]ccc23)n1 (configuration not stated) + Cc1ccccc1N=Nc1ccc(NC(=O)c2ccnn2C)c(C)c1 has viability, T/C strictly less than 60%
OUTPUT: class 0

INPUT: Answer whether the compound O=C(c1cc(Cc2n[nH]c(=O)c3ccccc23)ccc1F)N1CCN(C(=O)C2CC2)CC1 + Cc1ccccc1N=Nc1ccc(NC(=O)c2ccnn2C)c(C)c1 has viability, T/C strictly less than 60%
OUTPUT: class 0

INPUT: Answer whether the compound COc1cc(C2c3cc4c(cc3C(OC3OC5COC(C)OC5C(O)C3O)C3COC(=O)C23)OCO4)cc(OC)c1O (configuration not stated) + Cc1ccccc1N=Nc1ccc(NC(=O)c2ccnn2C)c(C)c1 has viability, T/C strictly less than 60%
OUTPUT: class 1

INPUT: Answer whether the compound O=C(C=Cc1cccc(S(=O)(=O)Nc2ccccc2)c1)NO + Cc1ccccc1N=Nc1ccc(NC(=O)c2ccnn2C)c(C)c1 has viability, T/C strictly less than 60%
OUTPUT: class 1

---

Test system: 324938-238-R-J1-PDC complex spheroid growth, % test/control
Experiment: Anticancer human tumor 324938-238-R-J1-PDC cell line growth inhibition [AhR]; active = viability on the fitted dose curve at most 10% of control; inactive = the rest;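 also: spheroids exposed to agents for seven days before viability read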
Settings: second compound 3.16 µM; first compound 0.03 µM
Description: Multicellular complex tumor spheroid response to aryl hydrocarbon receptor antagonists in combination with a variety of drugs and investigational agents in selected tumor cell lines […] Compounds. […] If the clinical Cmax for an agent had not been determined, the highest concentration tested was 10 microM (Table 1). […]
Write down one outcome, taken from t (active), f (inactive)

INPUT: Returns: the outcome recorded for Nc1ncn(C2CC(O)C(CO)S2)c(=O)n1 (stereo not given) + CC(CO)NC(=O)c1cc(-c2ccc(Cl)cc2)nn(-c2cnn(C)c2)c1=O in this assay.
OUTPUT: f

INPUT: Returns: the outcome recorded for CCc1c2c(nc3ccc(O)cc13)-c1cc3c(c(=O)n1C2)COC(=O)[C@]3(O)CC + Cc1ccccc1N=Nc1ccc(NC(=O)c2ccnn2C)c(C)c1 in this assay.
OUTPUT: f

INPUT: Returns: the outcome recorded for O=C(C=Cn1cnc(-c2cc(C(F)(F)F)cc(C(F)(F)F)c2)n1)NNc1cnccn1 + CC(CO)NC(=O)c1cc(-c2ccc(Cl)cc2)nn(-c2cnn(C)c2)c1=O in this assay.
OUTPUT: f

INPUT: Returns: the outcome recorded for O=C(C=Cn1cnc(-c2cc(C(F)(F)F)cc(C(F)(F)F)c2)n1)NNc1cnccn1 + Cc1cncc(-c2nc(NCCc3c[nH]c4ccccc34)c3ncn(C(C)C)c3n2)c1 in this assay.
OUTPUT: f

INPUT: Returns: the outcome recorded for CCc1c2c(nc3ccc(O)cc13)-c1cc3c(c(=O)n1C2)COC(=O)[C@]3(O)CC + CC(CO)NC(=O)c1cc(-c2ccc(Cl)cc2)nn(-c2cnn(C)c2)c1=O in this assay.
OUTPUT: f

INPUT: Returns: the outcome recorded for CC(C)CC(NC(=O)C(Cc1ccccc1)NC(=O)c1cnccn1)B(O)O (stereo not given) + Cc1cncc(-c2nc(NCCc3c[nH]c4ccccc34)c3ncn(C(C)C)c3n2)c1 in this assay.
OUTPUT: t

INPUT: Returns: the outcome recorded for CCc1c2c(nc3ccc(O)cc13)-c1cc3c(c(=O)n1C2)COC(=O)[C@]3(O)CC + Cc1cncc(-c2nc(NCCc3c[nH]c4ccccc34)c3ncn(C(C)C)c3n2)c1 in this assay.
OUTPUT: f

INPUT: Returns: the outcome recorded for O=C(C=Cn1cnc(-c2cc(C(F)(F)F)cc(C(F)(F)F)c2)n1)NNc1cnccn1 + Cc1ccccc1N=Nc1ccc(NC(=O)c2ccnn2C)c(C)c1 in this assay.
OUTPUT: f

INPUT: Returns: the outcome recorded for CC(C)CC(NC(=O)C(Cc1ccccc1)NC(=O)c1cnccn1)B(O)O (stereo not given) + Cc1ccccc1N=Nc1ccc(NC(=O)c2ccnn2C)c(C)c1 in this assay.
OUTPUT: t

INPUT: Returns: the outcome recorded for Nc1ncn(C2CC(O)C(CO)S2)c(=O)n1 (stereo not given) + Cc1cncc(-c2nc(NCCc3c[nH]c4ccccc34)c3ncn(C(C)C)c3n2)c1 in this assay.
OUTPUT: f

INPUT: Returns: the outcome recorded for CCN(c1cc(-c2ccc(CN3CCOCC3)cc2)cc(C(=O)NCc2c(C)cc(C)[nH]c2=O)c1C)C1CCOCC1 + Cc1cncc(-c2nc(NCCc3c[nH]c4ccccc34)c3ncn(C(C)C)c3n2)c1 in this assay.
OUTPUT: f

INPUT: Returns: the outcome recorded for CC(C)CC(NC(=O)C(Cc1ccccc1)NC(=O)c1cnccn1)B(O)O (stereo not given) + CC(CO)NC(=O)c1cc(-c2ccc(Cl)cc2)nn(-c2cnn(C)c2)c1=O in this assay.
OUTPUT: t

INPUT: Returns: the outcome recorded for CCN(c1cc(-c2ccc(CN3CCOCC3)cc2)cc(C(=O)NCc2c(C)cc(C)[nH]c2=O)c1C)C1CCOCC1 + Cc1ccccc1N=Nc1ccc(NC(=O)c2ccnn2C)c(C)c1 in this assay.
OUTPUT: f

INPUT: Returns: the outcome recorded for CCN(c1cc(-c2ccc(CN3CCOCC3)cc2)cc(C(=O)NCc2c(C)cc(C)[nH]c2=O)c1C)C1CCOCC1 + CC(CO)NC(=O)c1cc(-c2ccc(Cl)cc2)nn(-c2cnn(C)c2)c1=O in this assay.
OUTPUT: f

INPUT: Returns: the outcome recorded for Nc1ncn(C2CC(O)C(CO)S2)c(=O)n1 (stereo not given) + Cc1ccccc1N=Nc1ccc(NC(=O)c2ccnn2C)c(C)c1 in this assay.
OUTPUT: f
